# target under test: PTP1B (Homo sapiens, UniProt P18031)
# Construct: PTP1B was expressed and purified as described previously; made in house
# Sequence (P18031 1-435): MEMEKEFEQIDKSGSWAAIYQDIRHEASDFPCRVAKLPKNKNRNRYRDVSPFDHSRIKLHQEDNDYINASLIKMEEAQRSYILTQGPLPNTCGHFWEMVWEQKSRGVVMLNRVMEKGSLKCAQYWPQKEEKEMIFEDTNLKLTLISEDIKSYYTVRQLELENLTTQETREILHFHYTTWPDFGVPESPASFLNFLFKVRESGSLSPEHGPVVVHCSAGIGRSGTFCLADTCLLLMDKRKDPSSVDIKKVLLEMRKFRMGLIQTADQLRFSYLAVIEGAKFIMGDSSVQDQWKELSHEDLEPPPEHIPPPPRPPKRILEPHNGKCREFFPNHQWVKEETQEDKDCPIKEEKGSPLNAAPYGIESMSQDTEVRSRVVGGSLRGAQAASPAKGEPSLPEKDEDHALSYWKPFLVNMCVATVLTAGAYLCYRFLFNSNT
# test details: in vitro EnzChek phosphate assay of PTP1B against synthesized phosphopeptides
# Assay type: biochemical
# conditions used: peptide as substrate of PTP1B, value ± spread as printed, read-out: Km
Assign Km to each entry below.

QUERY: Specify reported Km for the substance shown: LGSRApYPHFCA [Peptide 8]
RESULT: > 300 µM

QUERY: Specify reported Km for the substance shown: QENPIpYKSPIN [Peptide 5, Predicted PTP1B phosphopeptide substrate from ITGB1, pY site 783]
RESULT: 21.7 µM

QUERY: Specify reported Km for the substance shown: DPSDNpYAEPID [Peptide 1, Predicted PTP1B phosphopeptide substrate from ARHGAP5, pY site 1090]
RESULT: 28.5 µM

Please go through the list and note Km for each substance.
1. STEPQpYQPGEN [Peptide 6, positive control peptide from Src as known substrate of PTP1B, reference compound]
2. EEEDIpYEVLPD [Peptide 2, Predicted PTP1B phosphopeptide substrate from SKAP1, pY site 271]
3. IEDPpYpYGNDSD [Peptide 4, Predicted PTP1B phosphopeptide substrate from ACP1, pY site 133]
4. DNEDVpYTFKTP [Peptide 3, Predicted PTP1B phosphopeptide substrate from GAB2, pY site 293]

RESULT:
1. 29.1 µM
2. 14.7 µM
3. 20.1 µM
4. 17.1 µM
